ENDPOINT_NAME: melting point (°C)

Below are worked cases with known answers.
# STRUCTURE_SMILES_STRING, RESULT_UNIT, melting point
measured = [
    ("CCCCCc1c(C(C)C)nc(C(C)C)c(CO)c1-c1ccccc1O", "°C", 126),
    ("FC(F)(F)c1cc(-c2ccc(Cl)cc2)nc2c(I)cnn12", "°C", 155),
]

P = COc1ccc(-c2nc(CC(=O)Cc3ccc(OC(C)=O)c(OC(C)=O)c3)cs2)cc1OC
Q = NS(=O)(=O)c1cccc(NC(=O)c2cnn3c(C(F)(F)F)cc(-c4ccc(C(F)(F)F)c(F)c4)nc23)c1
Of the pair P and Q , name the member with the lesser recorded melting point. State your choice using its label.
P
(P: 128 °C, Q: 259 °C)

---

ENDPOINT_NAME: melting point (°C)

# COMPOUND, melting point / °C
data = [
    ("CCCCC[C@@H](CNC(=O)Nc1c(OC(C)C)c(C)nn1-c1ccccc1)c1cccc2c1OCO2", 126),
    ("CC(Br)C(=O)Nc1ccc(Cl)cc1NC1CC1 (racemic)", 130),
]

---

Each entry below lists one item and its recorded melting point value.

Below are worked cases with known answers.
# COMPOUND, melting point
measured = [
    ("COc1ccc(C(=O)Nc2c(Cl)cncc2Cl)c2c(CC(=O)O)coc12", "270 to 278 °C"),
    ("CCOC(=O)c1cc(=O)cc(-c2cccc([N+](=O)[O-])c2)o1", "148 to 152 °C"),
    ("COc1ccc(-n2nc3c(cc2=O)CCSc2sccc2-3)cc1", "126 to 128 °C"),
    ("O=C(NCc1ccccc1Cl)C1Cc2ccccc2N1S(=O)(=O)c1ccc(-c2cccc(C(F)(F)F)c2)cc1 (stereo not given)", "142 to 144 °C"),
    ("O=C1N(Cc2ccccc2)Cc2cccnc2N1c1cccc([N+](=O)[O-])c1", "144 to 145 °C"),
    ("COC(=O)CC1(O)C=CC(=O)C=C1", "53 to 54 °C"),
    ("CC1CCc2ccc(Cl)c3c(=O)c(C(=O)O)cn1c23 (stereo not given)", "220 to 222 °C"),
    ("COc1ccc(C(NC(=O)c2ccc(F)cc2)c2cccc(Nc3c(OC)c(=O)c3=O)c2)cc1 (stereo not given)", "115 to 116 °C"),
    ("CCOC(=O)C1CN(C2CC2)c2nc(Sc3ccc(C)cc3)c(F)cc2C1=O (stereo not given)", "124 to 125 °C"),
    ("C=C(C)C(C(=O)OC(C)(C)C)C1(CC(C)C)CCN(CCc2ccccc2)C1=O (stereo not given)", "54.5 to 56 °C"),
]

Value of melting point reported for the compound Cc1ccc(CSc2nc(C)n(C)c(=O)c2Br)cc1 is 73 to 74 °C

Value of melting point reported for the compound CN(C)Cc1ccc(CN)cc1 is 38 to 39 °C

Value of melting point reported for the compound O=c1[nH]c2cc(Br)ccc2c(=O)n1Cc1ccc(Br)cc1F is > 280 °C

Value of melting point reported for the compound CCOC(=O)n1nc(N(C)C)c2c(Cl)cccc21 is 60 to 62 °C

Value of melting point reported for the compound CC(C)(C)OC(=O)N[C@@H](Cc1ccccc1)C(=O)NC1CCC(Nc2cccc3c2C(=O)c2ccccc2C3=O)CC1 (stereo not given in full) is 142 °C

---

Each entry below lists one item and its recorded melting point value.

Below are worked cases with known answers.
# COMPOUND, melting point
measured = [
    ("CC1CN(c2ccncc2Oc2ccccc2)CCN1 (configuration not stated)", "55 to 57 °C"),
    ("N#Cc1ccc2c(c1)C(CCC1CC1)(C(F)(F)F)c1nc[nH]c(=O)c1N2 (configuration not stated)", "> 280 °C"),
]

Value of melting point reported for the compound Cc1nc(Cn2c(=O)sc3cc(F)c(N=C=S)cc32)no1 is 168 to 170 °C

Value of melting point reported for the compound CCN(C(=O)C(F)(F)F)c1cc(C)nc(Oc2c(C)cc(C)cc2C)c1C is 110 to 111 °C

Value of melting point reported for the compound CCCCCC(Oc1ccc(C2=CCCCC2)cc1)C(=O)NC(C)C (configuration not stated) is 86 to 88 °C

Value of melting point reported for the compound COC(=O)c1cc(CO)ccc1S(=O)(=O)NC(=O)Nc1nc(OC)cc(OC)n1 is 182 to 185 °C

Value of melting point reported for the compound Cc1ccnc2c1C(=O)CC(c1ccccc1Br)C2 (configuration not stated) is 106 to 107 °C

Value of melting point reported for the compound O=c1[nH]c2ccc(C3=NOC(CN4CCC(Cc5ccc(F)cc5)C(O)C4)C3)cc2o1 (configuration not stated) is 224 to 233 °C

Value of melting point reported for the compound CCOC(=O)c1cc(NCc2ccccc2)c(Nc2ccc3ccccc3c2)c(S(N)(=O)=O)c1 is 199 to 201 °C

Value of melting point reported for the compound O=C(CO)c1ccc(F)c(F)c1Nc1ccc(I)cc1F is 128 °C

Value of melting point reported for the compound CC(=O)c1cn(S(=O)(=O)c2ccccc2)c2nccc(OC3CCCCC3)c12 is 107 to 109 °C

Value of melting point reported for the compound CCOc1ccc(Nc2c([N+](=O)[O-])cc([N+](=O)[O-])c(Cl)c2C(=O)O)cc1 is 202 to 206 °C

Value of melting point reported for the compound O=c1c(CCCc2cncnc2)cc2cccnc2n1-c1cccc([N+](=O)[O-])c1 is 175 to 176 °C

Value of melting point reported for the compound COc1ccc(COC(=O)NC(C(=O)O)c2cccs2)cc1 (configuration not stated) is 153 to 156 °C

Value of melting point reported for the compound COC(=O)c1ccc2c(c1)c(Cc1ccc(C(=O)O)cc1OC)cn2C is 228 to 230 °C

Value of melting point reported for the compound OC(CNC1=NCCN1)c1ccc(Cl)c(Cl)c1 (configuration not stated) is 148 °C

Value of melting point reported for the compound CCCCCCCCCCCCCCCCCCOCCOCCOC(=O)NCc1ccccn1 is 61 to 62 °C

Value of melting point reported for the compound O=C1NC(=O)C(CC#Cc2ccc(Cl)cc2)(Sc2ccc(F)cc2)S1 (configuration not stated) is 116 to 117 °C

---

Each entry below lists one item and its recorded melting point value.

Below are worked cases with known answers.
# MOLECULE, MEAS_VALUE
rows = [
    ("Cc1c(OCC(F)(F)F)ccnc1CSc1nc2cc(N3CCCCC3)c(F)cc2[nH]1", "160 to 161 °C"),
    ("Cc1ccc(-c2nc(Cl)c3ccccc3n2)cc1", "113 to 115 °C"),
    ("COC(=O)c1cc(I)ccn1", "73 to 74 °C"),
    ("Nc1nonc1-c1nc2ccccc2n1COc1ccc(F)cc1", "155 to 158 °C"),
    ("CCNc1cc(C)nc(Oc2c(C)cc(C)cc2C)c1C", "115 to 116 °C"),
]

Value of melting point reported for the molecule Cc1ccc(Br)c(S(C)(=O)=O)c1 is 110 to 114 °C

Value of melting point reported for the molecule COC(=O)c1ccc(OC)nc1S(=O)(=O)NC(=O)Nc1nc(OC)cc(OC)n1 is 194 to 196 °C

Value of melting point reported for the molecule COC(=O)CC(C(=O)OC)N1C(=O)C2NC(C)(C)SC21 (stereo unspecified) is 136 to 137 °C

Value of melting point reported for the molecule Cc1[nH]c2ccc(CCN(C)C3CCCCC3)cc2c1C(=O)OCc1ccccc1 is 122 to 124 °C

Value of melting point reported for the molecule Cc1cc(N)n(-c2c(Cl)cc(Cl)cc2Cl)n1 is 132 to 134 °C

Value of melting point reported for the molecule Cn1nc(-c2ccccc2)c2c(=O)[nH]c(N)nc21 is > 300 °C

---

ENDPOINT_NAME: melting point (°C)

# STRUCTURE_SMILES_STRING, MEAS_VALUE
rows = [
    ("CC(C)Cc1ccc([N+](=O)[O-])cc1C#N", 73),
]

1 = CC(C)OC(CC#N)=NC#N
2 = COCCOc1ccc(O)cc1
3 = NS(=O)(=O)c1nc2ccc(OC(=O)C=Cc3ccccc3)cc2s1
Which order do these items take when sorted by rising melting point? List them. Answer format: list of labels, ordered as asked.
1, 2, 3

---

ENDPOINT_NAME: melting point

Below are worked cases with known answers.
# COMPOUND, melting point
measured = [
    ("CSc1cc(C)nc(SC)c1NC(=O)CCCCSc1nc2cccc(C(F)(F)F)c2o1", "179 to 180 °C"),
    ("CCn1cc(C(=O)O)c(=O)c2cc(F)c(N3CCNC(CF)C3)cc21 (configuration not stated)", "177 to 180 °C"),
    ("O=C(O)c1c(Br)cc(OCc2ccccc2)cc1OCc1ccccc1", "90 to 91 °C"),
    ("CNC(=O)[C@@H]1CCCN1C(=O)[C@H](C)NC(=O)OCc1ccccc1", "126 to 129 °C"),
]

Value of melting point reported for the compound Cc1cnc2c(c1)CCCC2O (configuration not stated) is 58 °C

Value of melting point reported for the compound CN(c1cccc2cc(C(N)=O)[nH]c12)S(=O)(=O)c1ccccc1C(F)(F)F is 223 to 224 °C

Value of melting point reported for the compound [N-]=[N+]=N[C@@H](Cc1ccccc1)[C@H](O)CO is 83 to 84 °C

Value of melting point reported for the compound CC1(c2cc(Cl)nnc2Cl)CC1(Cl)Cl (configuration not stated) is 78 to 79 °C

Value of melting point reported for the compound Cc1cc(-c2cnn3c(C(F)F)cc(-c4ccc(C(F)(F)F)cc4)nc23)ccn1 is 213 °C

Value of melting point reported for the compound CON=C(C)c1cccc(Nc2nc(OC)cc(OC)n2)c1C(=O)OC is 82 to 84 °C

Value of melting point reported for the compound CCC(=O)C1c2cccc(O)c2C(=O)c2c(OC(C)=O)cccc21 (configuration not stated) is 106 °C

Value of melting point reported for the compound O=c1nc(-c2ccc(Sc3ccc(Cl)cc3)nc2)sc2ccccc12 is 222 °C

Value of melting point reported for the compound CCOC(=O)c1csc2c1N(O)CCC2 is 252 to 253 °C

Value of melting point reported for the compound O=c1[nH]c2ccccc2n1OCc1ccccc1 is 92 to 95 °C

Value of melting point reported for the compound CC(C)(C)c1nn(-c2c(Cl)cc(C(F)(F)F)cc2Cl)c(N)c1Cl is 137 °C

Value of melting point reported for the compound Cc1c(F)ncn1CC(=O)c1ccccc1 is 84.5 °C

Value of melting point reported for the compound CN(C)C=Nc1[nH]nc(NCc2ccccc2)c1C#N is 197 to 200 °C

Value of melting point reported for the compound Cn1c(C(F)(F)F)cc(=O)n(-c2ccc3snc(OCC#N)c3c2)c1=O is 265 to 266 °C

Value of melting point reported for the compound Cc1cc2c(c3ccc(=O)[nH]c13)OC(CNC(=O)CN(C)C(=O)OC(C)(C)C)C2 (configuration not stated) is 190 to 191 °C

Value of melting point reported for the compound FC(F)(F)Oc1ccc2nc(Cl)sc2c1 is < 50 °C

Value of melting point reported for the compound C[C@H](CSC(=O)c1ccccc1)C(=O)N1C(=O)N(Cc2ccccc2)C[C@H]1C(=O)OC(C)(C)C is 104 to 106 °C

Value of melting point reported for the compound COc1c(N2CCNCC2)c(F)c(N)c2c(=O)c(C(=O)O)cn(C3CC3)c12 is 271 to 273 °C
